- targetSystem: human HPK1 (MAP4K1) (Homo sapiens)
- Construct: Recombinant human HPK1 kinase domain was obtained from ThermoFisher (Cat. #PV6357) and SignalChem (Cat. #M23-11G); SignalChem PV6357; M23-11G
- Sequence (Q92918 17-274 limits assumed): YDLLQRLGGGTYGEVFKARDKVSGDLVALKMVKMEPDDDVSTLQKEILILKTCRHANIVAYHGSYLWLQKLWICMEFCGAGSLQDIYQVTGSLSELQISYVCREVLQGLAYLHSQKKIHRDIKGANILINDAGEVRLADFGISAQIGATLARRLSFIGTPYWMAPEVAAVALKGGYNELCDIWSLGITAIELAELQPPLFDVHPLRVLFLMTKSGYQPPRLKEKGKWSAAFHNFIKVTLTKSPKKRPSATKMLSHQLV
- assayProcedure: Biochemical assay for activity against HPK1 (ADP-Glo, MBP substrate)
- testContext: recombinant human HPK1 kinase domain, 1 nM enzyme, ADP-Glo luminescence
pIC50: −log10 of the molar value. Structures can show the parent of a compound that is named as a salt.
readoutKind: pIC50

>>> recordedmeasurement("COc1cc2c(cc1Nc1ncc3cnn(CC4CC(CO)C4)c3n1)CN(C)CC2 (stereo not shown)")
"> 7.00"
>>> recordedmeasurement("COc1cc2c(cc1Nc1ncc3cnn(C[C@H]4CCC[C@@H]4C(=O)O)c3n1)CN(C)CC2")
"> 7.00"
>>> recordedmeasurement("COc1cc2c(cc1Nc1ncc3cnn(C4CC(CO)(CO)C4)c3n1)CN(C)CC2")
"> 7.00"
>>> recordedmeasurement("COc1cc2c(cc1Nc1ncc3cnn([C@@H]4CC[C@H](CO)C4)c3n1)CN(C)CC2 (relative stereo)")
"> 7.00"
>>> recordedmeasurement("COc1cc2c(cc1Nc1ncc3cnn(C[C@@H](C)NC(C)=O)c3n1)CN(C)CC2")
"6.60 to 7.00"
>>> recordedmeasurement("COc1cc2c(cc1Nc1ncc3cnn(C[C@H]4[C@@H](O)CCN4C(C)=O)c3n1)CN(C)CC2")
"< 6.60"
>>> recordedmeasurement("COc1cc2c(cc1Nc1ncc3cnn([C@@H]4CC[C@H]5CN(C(C)=O)[C@H]54)c3n1)CN(C)CC2")
"> 7.00"
>>> recordedmeasurement("COc1cc2c(cc1Nc1ncc3cnn([C@H]4CC[C@H](C(N)=O)CC4)c3n1)CN(C)CC2")
"> 7.00"
>>> recordedmeasurement("COc1cc2c(cc1Nc1ncc3cnn([C@H]4CC[C@@H](CO)CC4)c3n1)CN(C)CC2")
"> 7.00"
>>> recordedmeasurement("COc1cc2c(cc1Nc1ncc3cnn(C[C@@H]4CCCN4S(C)(=O)=O)c3n1)CN(C)CC2")
"> 7.00"
>>> recordedmeasurement("COc1cc2c(cc1Nc1ncc3cnn([C@H]4CC[C@H](O)CC4)c3n1)CN(C)CC2")
"> 7.00"
>>> recordedmeasurement("COC(=O)N[C@H]1CC[C@H](n2ncc3cnc(Nc4cc5c(cc4OC)CCN(C)C5)nc32)CC1")
"> 7.00"
>>> recordedmeasurement("COc1cc2c(cc1Nc1ncc3cnn(C[C@@H]4CCC[C@H]4C(=O)O)c3n1)CN(C)CC2 [Example 157]")
"> 7.00"
>>> recordedmeasurement("CC(=O)N1CCC[C@H]1Cn1ncc2cnc(Nc3ccc4c(c3)CN(C)CC4)nc21")
"> 7.00"
>>> recordedmeasurement("COc1cc2c(cc1Nc1ncc3cnn(C[C@@H]4CCCN4C(C)=O)c3n1)CN(C)CC2")
"> 7.00"
>>> recordedmeasurement("COc1cc2c(cc1Nc1ncc3cnn(C[C@@H]4C[C@@H]4C(=O)O)c3n1)CN(C)CC2 (racemic)")
"> 7.00"
>>> recordedmeasurement("COc1nc2c(cc1Nc1ncc3cnn([C@H]4CC[C@H](O)CC4)c3n1)CN(C)CC2")
"> 7.00"
>>> recordedmeasurement("COc1cc2c(cc1Nc1ncc3cnn(C[C@@H]4[C@@H](F)CCN4C(C)=O)c3n1)CN(C)CC2")
"> 7.00"
>>> recordedmeasurement("COc1cc2c(cc1Nc1ncc3c(C)nn(C[C@@H]4CCCN4C(C)=O)c3n1)CN(C)CC2")
"6.60 to 7.00"
>>> recordedmeasurement("COc1cc2c(cc1Nc1ncc3cnn(C[C@@H]4[C@@H](C)[C@@H](O)CN4C(C)=O)c3n1)CN(C)CC2")
"> 7.00"
>>> recordedmeasurement("CN1CCc2ccc(Nc3ncc4cnn([C@H]5CCCNC5)c4n3)cc2C1 [Example 17, hydrochloride]")
"> 7.00"
>>> recordedmeasurement("COc1cc2c(cc1Nc1ncc3cnn(C[C@H]4C[C@H]4CO)c3n1)CN(C)CC2 (relative stereo)")
"> 7.00"
>>> recordedmeasurement("COc1nc2c(cc1Nc1ncc3cnn(C[C@@H]4CCC(C)(C)N4C(C)=O)c3n1)CN(C)CC2")
"> 7.00"
>>> recordedmeasurement("COc1cc2c(cc1Nc1ncc3c(C(F)(F)F)nn(C(C)C)c3n1)CN(C)CC2")
"> 7.00"
>>> recordedmeasurement("COc1cc2c(cc1Nc1ncc3cnn(Cc4cc[nH]c(=O)c4)c3n1)CN(C)CC2")
"> 7.00"
>>> recordedmeasurement("COc1cc2c(cc1Nc1ncc3cnn([C@H]4C[C@@H](CNC(C)=O)C4)c3n1)CN(C)CC2")
"6.60 to 7.00"
>>> recordedmeasurement("Cc1nn(C2COC2)c2nc(Nc3ccc4c(c3)CN(C)CC4)ncc12")
"> 7.00"
>>> recordedmeasurement("COc1cc2c(cc1Nc1ncc3cnn(C[C@@H]4[C@H]5C[C@H]5CN4C(C)=O)c3n1)CN(C)CC2")
"> 7.00"
>>> recordedmeasurement("C=CCCN1CCc2ccc(Nc3ncc4cnn(CCC=C)c4n3)cc2C1")
"> 7.00"
>>> recordedmeasurement("COc1cc2c(cc1Nc1ncc3cnn(C[C@@H]4CCCN4C(C)=O)c3n1)[C@@H](C)N(C)CC2")
"> 7.00"
>>> recordedmeasurement("COc1cc2c(cc1Nc1ncc3cnn(C[C@@H]4C[C@H]5C[C@H]5N4C(C)=O)c3n1)CN(C)CC2")
"> 7.00"
